System: MDA-MB-453
Assay: normalised viability (% of control), CellTiter-Blue; higher = more viable cells (100 = DMSO, 0 = benzethonium chloride kill control)
Details: incubation time: 72 h
measured attribute: normalised viability (%)
The figure you give is taken to be in %; do not add the unit.

Example results:
compound | value units | normalised viability
Nc1nc(Cl)nc2c1ncn2[C@@H]1O[C@H](CO)[C@@H](O)[C@@H]1F [Clofarabine] (1 nM) | % | 107
Cc1c(N)nc([C@H](CC(N)=O)NC[C@H](N)C(N)=O)nc1C(=O)N[C@H](C(=O)N[C@H](C)[C@@H](O)[C@H](C)C(=O)N[C@H](C(=O)NCCc1nc(-c2nc(C(=O)NCCC[S+](C)C)cs2)cs1)[C@@H](C)O)[C@@H](OC1OC(CO)C(O)C(O)C1OC1OC(CO)C(O)C(OC(N)=O)C1O)c1cnc[nH]1 (stereo partly specified) [Bleomycin] (1 nM) | % | 91.7
C[C@@H]1C[C@H]2[C@@H]3CCC4=CC(=O)C=C[C@]4(C)[C@@]3(F)[C@@H](O)C[C@]2(C)[C@@]1(O)C(=O)CO [Dexamethasone] (1 nM) | % | 94.3
Cn1nnc2c(C(N)=O)ncn2c1=O [Temozolomide] (1 nM) | % | 98.1
CCN(CC)CCOc1ccc(C(=C(Cl)c2ccccc2)c2ccccc2)cc1 [Clomifene] (1 nM) | % | 102

Input: Look up normalised viability for this compound: CO[C@H]1C[C@@H]2CC[C@@H](C)[C@@](O)(O2)C(=O)C(=O)N2CCCC[C@H]2C(=O)O[C@H]([C@H](C)C[C@@H]2CC[C@@H](O)[C@H](OC)C2)CC(=O)[C@H](C)/C=C(\C)[C@@H](O)[C@@H](OC)C(=O)[C@H](C)C[C@H](C)/C=C/C=C/C=C/1C [Sirolimus] (0.1 nM)
Output: 99.4
